# System: SF-295
# testProtocol: Growth inhibition of human SF295 cells after 48 hrs by sulforhodamine B assay
# Type: functional
# experimentalConditions: SF-295, 48 h
parameter: LC50 (µM)
Provide the reading as a plain figure in µM.

"COc1cc(/C=C/c2cc3c(c(OC)c2)O[C@]2(C)CC[C@@H](O)C(C)(C)[C@H]2C3)cc(O)c1C/C=C(\C)CCC=C(C)C" tested on SF-295 gave LC50: 3.89

The observed LC50 for "COCOc1cc(/C=C/c2cc(CO)c3c(c2)C[C@@H]2C(C)(C)[C@H](O)CC[C@@]2(C)O3)cc(OC)c1C/C=C(\C)CCC=C(C)C" when tested with SF-295 stands at 33.9

Case "COc1cc(/C=C/c2cc(O)c3c(c2)C[C@@H]2C(C)(C)[C@H](O)CC[C@@]2(C)O3)cc(O)c1C/C=C(\C)CCC=C(C)C" , SF-295, LC50 recorded as 26.9

SF-295 LC50 of "COc1cc(/C=C/c2cc(F)c3c(c2)C[C@@H]2C(C)(C)[C@H](O)CC[C@@]2(C)O3)cc(O)c1C/C=C(\C)CCC=C(C)C" is 69.2

The molecule "COc1cc(/C=C/c2ccc3c(c2)C[C@@H]2C(C)(C)[C@H](O)CC[C@@]2(C)O3)cc(O)c1C/C=C(\C)CCC=C(C)C" , tested on SF-295, showed LC50 of 38.9
